Just for reference, paper PMC10460054 is where these values come from.

PROTOCOL: Stability of 9 compounds in mouse plasma under storage conditions
Assay type: in vitro ADME
RUN_CONDITIONS: −20 °C for 20 days, medium QC (320 or 160 ng/mL), n = 6
ENDPOINT_LABEL: Stability Long-Term RE (%)

1. O=c1cc(-c2ccccc2)oc2c(O)c(O)cc(O)c12    3.74
2. O=c1cc(-c2ccccc2)oc2cc(O)cc(O)c12    −9.37
3. O=C(O)[C@H]1O[C@@H](Oc2cc3oc(-c4ccccc4)cc(=O)c3c(O)c2O)[C@H](O)[C@@H](O)[C@@H]1O    −5.21
4. COc1c(O[C@@H]2O[C@H](C(=O)O)[C@@H](O)[C@H](O)[C@H]2O)cc(O)c2c(=O)cc(-c3ccccc3)oc12 [Wogonoside]    −2.01
5. COc1c(O)cc2oc(-c3ccccc3)cc(=O)c2c1O    −5.78
6. COc1c(O)cc(O)c2c(=O)cc(-c3ccccc3)oc12    11.75
7. O=C(O)[C@H]1O[C@@H](Oc2cc(O)c3c(=O)cc(-c4ccc(O)cc4)oc3c2)[C@H](O)[C@@H](O)[C@@H]1O [Apigenin-7-glucuronide]    −1.48
8. COc1c(OC2OC(C(=O)O)C(O)C(O)C2O)cc2oc(-c3ccccc3)cc(=O)c2c1O [Oroxylin A 7-O-beta-D-glucuronide]    2.21
